Recorded GI50 for the following compounds
- Tested on: NCI-H460
- PROTOCOL_DESCRIPTION: NCI tumour cell line growth inhibition, 48 h
Active and inactive are the calls of the source. Cut-off read from the data, not from the text of the source: active = GI50 up to about 1.1 µM and inactive = higher.

Some compounds with recorded GI50:
COMPOUND	GI50
N#C/C(C(=O)NCc1ccccc1)=C(/N)N1CCCC1	> 100 µM (inactive)
O=C(CSCC(=O)N/N=C\c1ccc(O)c(O)c1O)N/N=C\c1ccc(O)c(O)c1O	23.3 µM (inactive)
Cc1ccc(N2C(=O)CS/C2=C(\C#N)c2nc3ccccc3[nH]2)cc1	> 100 µM (inactive)

QUERY: Bench note: what GI50 did COc1cccc2c1[C@H]1CO[C@H]3C4C[C@H](C(=O)O)C([C@@H](C2)N13)N4C (stereo not given in full) show?
RESULT: 3.93 µM (inactive)

QUERY: Which GI50 is reported for this compound? "CN(C)c1cccc(-c2cc(=S)c3cc4c(cc3[nH]2)OCO4)c1"
RESULT: 4.59 µM (inactive)

###

- Tested on: KM-20L2
- PROTOCOL_DESCRIPTION: NCI tumour cell line growth inhibition, 48 h
Activity calls are given as the source filed them. Rule as the data show it: active = GI50 up to about 1.1 µM and inactive = higher.
READOUT_NAME: GI50

Here are 6 compounds together with their reported answers.
COMPOUND	SYSTEM_NAME	READOUT_NAME	MEASURED
O=C(/C=C/c1ccccc1)CCN1CCOCC1	KM-20L2	GI50	15.9 µM (inactive)
O=C(Cc1nc2ccccc2o1)C(=O)Nc1ccccc1C(F)(F)F	KM-20L2	GI50	> 100 µM (inactive)
Cc1cccc(C(C)(C)C)c1NC(=O)CC1Sc2ccccc2NC1=O (stereo unspecified)	KM-20L2	GI50	> 100 µM (inactive)
[N-]=[N+]=CC(=O)CCC(N)C(=O)O (stereo unspecified)	KM-20L2	GI50	0.226 µM (active)
Cc1cc(Cl)ccc1N1C(=O)C(=O)C(c2nc3ccccc3s2)/C(=N\NC(=O)c2ccccc2O)C1=O (stereo unspecified)	KM-20L2	GI50	> 100 µM (inactive)
O=C(CC1(O)C(=O)Nc2ccccc21)c1ccco1 (stereo unspecified)	KM-20L2	GI50	> 100 µM (inactive)

QUERY: Entry under review: Cc1ccc(C(=O)O/N=C2/CCCCC2CN(C)C)cc1 (stereo unspecified) . Reported GI50?
RESULT: > 100 µM (inactive)

QUERY: Look up GI50 for this compound: O=C1OC2CC=CC1C2 (stereo unspecified)
RESULT: > 100 µM (inactive)

QUERY: Which GI50 value belongs to O=C(NCCCCCCNC(=O)n1cc(F)c(=O)[nH]c1=O)NCCCOCCOCCOCCOCCOCCOCCOCCOCCOCCOCCOCCOCCOCCOCCOCCOCCOCCOCCOCCOCCOCCCNC(=O)C(O)C(O)C(O)C(O)CO (stereo unspecified) ?
RESULT: 22.5 µM (inactive)

QUERY: Please report the recorded GI50 for O=C1NC2OC(CO)C(O)C(O)C2O1 (stereo unspecified) .
RESULT: > 100 µM (inactive)

QUERY: GET /values?readout=GI50&item= "CSC(=S)c1ccc(C(=S)SC)cc1"
RESULT: > 100 µM (inactive)

QUERY: Entry under review: "Nc1ccc(C(=O)N/C(=C\C=C\c2ccco2)c2nc3c(O)nc(S)nc3[nH]2)cc1" . Reported GI50?
RESULT: 87.1 µM (inactive)

QUERY: So what's the measured GI50 for this one? CCN(CC)CCCC(C)Nc1ccnc2cc(Cl)ccc12 (stereo unspecified) [CHLOROQUINE PHOSPHATE]
RESULT: 14.6 µM (inactive)

QUERY: Could you tell me which GI50 is on file for "Nc1nc(CC2(O)CCCCC2)cc(-c2ccccc2)n1" ?
RESULT: 17.5 µM (inactive)

QUERY: What does the data say about its GI50? Entry: "CCc1cccc(C)c1NC(=O)CCc1nnc2s/c(=C\c3cccc4ccccc34)c(=O)n12"
RESULT: > 100 µM (inactive)

QUERY: # input compound: "COc1ccc2ccc([Se]c3ccc4ccc(OC)cc4c3)cc2c1" ; wanted: its GI50
RESULT: > 100 µM (inactive)

QUERY: If you can, please state the reported GI50 value of "COc1ccc(/C(Cl)=C(\C=O)c2ccc([N+](=O)[O-])cc2)cc1OC" .
RESULT: 12.2 µM (inactive)

QUERY: Form field: reported GI50 of CC(=O)OCC1(C)C(OC(C)=O)CCC2(C)C(CC(OC(C)=O)C3=CCOC3=O)C(O)(CO)CCC12 (stereo unspecified)
RESULT: > 100 µM (inactive)

QUERY: Could you share which GI50 value was measured for "COc1ccc2c(C(=O)O)cc3cc(OC)c(OC)cc3c2c1" ?
RESULT: > 100 µM (inactive)

QUERY: What value of measured GI50 is listed for "CCC/N=C/c1c(O)c(O)c(C(C)C)c2cc(C)c(-c3c(C)cc4c(C(C)C)c(O)c(O)c(/C=N/CCC)c4c3O)c(O)c12" ?
RESULT: 2.86 µM (inactive)

QUERY: # lookup: GI50 of COC(=O)[C@@]12C(=O)CCC(=O)C1C1C(=CC2C)O[C@@H]2OC3(CCCCC3)O[C@H]12 (stereo partly specified)
RESULT: > 100 µM (inactive)
